Measured bioavailability by item
- experiment summary: Oral bioavailability in rat
- Assay type: ADME, organism-based
- condition summary: in vivo

mol smiles | units text | bioavailability
Cn1c(-c2noc(N3CCN(C(=O)NC4CCCCC4)CC3)n2)nc2ccccc21 | % | 10
O=C(Nc1ccccc1Cl)N1CCC(c2nc(-c3ccc4ccccc4n3)no2)CC1 | % | 38
Cn1c(-c2noc(C3CCN(C(=O)NC4CCCCC4)CC3)n2)nc2ccccc21 | % | 59
O=C(NC1CCCCC1)N1CCN(c2nc(-c3ccc4ccccc4n3)no2)CC1 | % | 24

---

- study target: Protein smoothened (Homo sapiens, UniProt Q99835)
- Sequence (Q99835 whole entry): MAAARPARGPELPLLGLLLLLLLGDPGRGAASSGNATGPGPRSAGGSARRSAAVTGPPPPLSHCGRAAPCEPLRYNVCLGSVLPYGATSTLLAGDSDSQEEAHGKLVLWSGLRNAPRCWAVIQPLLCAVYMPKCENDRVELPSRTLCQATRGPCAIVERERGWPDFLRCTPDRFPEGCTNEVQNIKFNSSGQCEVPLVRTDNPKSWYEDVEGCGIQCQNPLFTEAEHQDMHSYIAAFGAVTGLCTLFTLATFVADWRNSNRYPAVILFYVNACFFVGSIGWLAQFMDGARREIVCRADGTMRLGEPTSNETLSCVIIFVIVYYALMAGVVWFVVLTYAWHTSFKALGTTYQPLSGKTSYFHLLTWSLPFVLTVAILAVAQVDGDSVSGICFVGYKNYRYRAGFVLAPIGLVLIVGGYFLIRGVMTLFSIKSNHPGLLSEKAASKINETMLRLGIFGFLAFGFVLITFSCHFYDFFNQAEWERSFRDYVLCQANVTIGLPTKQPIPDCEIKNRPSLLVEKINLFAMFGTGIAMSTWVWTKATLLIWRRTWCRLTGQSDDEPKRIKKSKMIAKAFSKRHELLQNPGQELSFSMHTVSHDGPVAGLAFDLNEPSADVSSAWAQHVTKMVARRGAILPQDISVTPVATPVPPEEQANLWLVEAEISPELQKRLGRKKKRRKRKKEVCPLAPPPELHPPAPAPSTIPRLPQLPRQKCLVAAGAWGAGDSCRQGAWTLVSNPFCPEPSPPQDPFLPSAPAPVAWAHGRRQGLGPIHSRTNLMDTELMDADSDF
- experiment summary: Displacement of Bodipy-labelled cyclopamine from Smo expressed in COS-1 cells in presence of 2% FBS after 4 to 6 hrs by FACS flow cytometric analysis
- Assay type: cell-based
pIC50: −log10 of the molar value.
Measured pIC50 by item
measured property: pIC50

mol smiles | censoring sign | measured number
COc1ccccc1NC(=O)N1CCC(c2nc(-c3ccccc3)no2)CC1 | < | 5.60
COc1cccc2ccc(-c3noc(C4CCN(C(=O)Nc5ccccc5Cl)CC4)n3)nc12 | < | 5.60
O=C(Nc1cccnc1Cl)N1CCC(c2nc(-c3ccc4ccccc4n3)no2)CC1 | = | 5.82
O=C(Nc1ncccc1Cl)N1CCC(c2nc(-c3ccc4ccccc4n3)no2)CC1 | < | 5.60
N#Cc1ccccc1NC(=O)N1CCC(c2nc(-c3ccc4ccccc4n3)no2)CC1 | = | 6.31
C[C@H]1C[C@H](c2nc(-c3ccc4ccccc4n3)no2)CCN1C(=O)Nc1ccccc1Cl | = | 6.19
O=C(Nc1ccccc1Cl)N1CCC(O)(c2nc(-c3ccc4ccccc4n3)no2)CC1 | = | 5.68
O=C(NC1CCC(F)(F)CC1)N1CCC(c2nc(-c3ccc4ccccc4n3)no2)CC1 | = | 6.32
COc1ccccc1NC(=O)N1CCC(c2nc(-c3cccnc3)no2)CC1 | < | 5.60
O=C(Nc1ccccc1Cl)N1CCC(c2nc(-c3cnccn3)no2)CC1 | < | 5.60

---

- study target: Protein smoothened (Homo sapiens)
- experiment summary: Inhibition of Bodipy-labelled cyclopamine binding to Smo expressed in COS-1 cells in presence of 20% NHS after 4 to 6 hrs by FACS flow cytometric analysis
- Format: cell-based
pIC50: −log10 of the molar value.

mol smiles | study target | censoring sign | pIC50
COc1cc2ccccc2nc1-c1noc(C2CCN(C(=O)Nc3ccccc3Cl)CC2)n1 | Protein smoothened (Homo sapiens) | < | 5.60
Cn1c(-c2noc(C3CCN(C(=O)NC4CCS(=O)(=O)CC4)CC3)n2)nc2ccccc21 | Protein smoothened (Homo sapiens) | = | 6.12
O=C(NC1CCC(F)(F)CC1)N1CCN(c2nc(-c3ccc4ccccc4n3)no2)CC1 | Protein smoothened (Homo sapiens) | = | 7.41
N#Cc1ccc(Cl)c(NC(=O)N2CCC(c3nc(-c4ccc5ccccc5n4)no3)CC2)c1 | Protein smoothened (Homo sapiens) | < | 5.60
Cn1c(-c2noc(N3CCN(C(=O)NC4CCC(F)(F)CC4)CC3)n2)nc2ccccc21 | Protein smoothened (Homo sapiens) | = | 7.60
Cn1c(-c2noc(C3CCN(C(=O)Nc4ccccc4Cl)CC3)n2)nc2ccccc21 | Protein smoothened (Homo sapiens) | = | 5.35
O=C(NC1CCNCC1)N1CCC(c2nc(-c3ccc4ccccc4n3)no2)CC1 | Protein smoothened (Homo sapiens) | = | 5.43
COc1cc(-c2noc(C3CCN(C(=O)Nc4ccccc4Cl)CC3)n2)nc2ccccc12 | Protein smoothened (Homo sapiens) | < | 5.60
CS(=O)(=O)c1ccc(NC(=O)N2CCC(c3nc(-c4ccc5ccccc5n4)no3)CC2)c(Cl)c1 | Protein smoothened (Homo sapiens) | = | 5.39
